Biological target: PPO2 ΔG210 (Amaranthus tuberculatus, UniProt Q0NZW9, DEL210-210)
Sequence (Q0NZW9 with tags, fused parts or gaps DEL210-210): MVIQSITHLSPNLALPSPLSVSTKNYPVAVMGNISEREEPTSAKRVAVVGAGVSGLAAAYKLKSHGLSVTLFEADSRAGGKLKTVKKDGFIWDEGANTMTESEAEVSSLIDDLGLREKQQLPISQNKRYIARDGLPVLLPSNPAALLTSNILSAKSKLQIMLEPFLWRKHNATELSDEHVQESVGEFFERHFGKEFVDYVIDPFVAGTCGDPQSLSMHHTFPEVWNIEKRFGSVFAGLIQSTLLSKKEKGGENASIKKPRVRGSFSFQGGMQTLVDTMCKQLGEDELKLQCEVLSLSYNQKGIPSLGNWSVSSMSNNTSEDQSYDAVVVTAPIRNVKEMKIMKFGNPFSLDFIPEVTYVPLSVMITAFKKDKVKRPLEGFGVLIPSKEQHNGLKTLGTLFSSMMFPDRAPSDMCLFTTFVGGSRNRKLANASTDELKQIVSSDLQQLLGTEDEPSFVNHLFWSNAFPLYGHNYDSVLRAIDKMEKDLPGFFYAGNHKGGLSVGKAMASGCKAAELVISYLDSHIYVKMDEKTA
Answer each item with its documented pIC50.
Answers are plain numbers, as −log10 of the molar value.

For orientation, consider the following solved cases.
Compound	Endpoint label	Measured result
CCOC(=O)C(C)OC(=O)c1cc(Oc2ccc(C(F)(F)F)cc2Cl)ccc1[N+](=O)[O-] (stereo not shown) [Lactofen, lactofen]	pIC50	6.26
C#CCN1C(=O)C(F)(F)Oc2cc(F)c(-n3c(=O)n(C)c(=S)n(C)c3=O)cc21 [Trifludimoxazin, trifludimoxazin]	pIC50	8.74

As a next step, examine the compound that follows.
-- ask Name the recorded pIC50 for CC(C)N(C)S(=O)(=O)NC(=O)c1cc(-n2c(=O)cc(C(F)(F)F)n(C)c2=O)c(F)cc1Cl [Saflufenacil, saflufenacil] .
-- reply 5.69

----------
Target: R128(X) ΔG210 double-mutant enzymes
Format: biochemical, Amaranthus tuberculatus
Conditions: read-out: IC50 values (range over variants)
pIC50: −log10 of the molar value.
Endpoint label: pIC50

-- ask Name the recorded pIC50 for CCOC(=O)C(C)OC(=O)c1cc(Oc2ccc(C(F)(F)F)cc2Cl)ccc1[N+](=O)[O-] (stereo not shown) .
-- reply 6.00 to 7.00

----------
Biological target: PPO2 R128T ΔG210 (Amaranthus tuberculatus, UniProt Q0NZW9, DEL210-210/R128T)
Endpoint label: pIC50
Numbers only, as −log10 of the molar value.

Molecule	Endpoint label	Measured result
C#CCN1C(=O)C(F)(F)Oc2cc(F)c(-n3c(=O)n(C)c(=S)n(C)c3=O)cc21	pIC50	7.13

As a next step, examine the molecule that follows.
-- ask # get_value(readout= pIC50, system= PPO2 R128T ΔG210 (Amaranthus tuberculatus, UniProt Q0NZW9, DEL210-210/R128T)) for CCOC(=O)C(C)OC(=O)c1cc(Oc2ccc(C(F)(F)F)cc2Cl)ccc1[N+](=O)[O-] (stereo not shown)
-- reply 5.41

----------
Answer each item with its documented pIC50.
Target: PPO2 G399A (Amaranthus tuberculatus, UniProt Q0NZW9, G398A)
Sequence (Q0NZW9 31-534 G398A): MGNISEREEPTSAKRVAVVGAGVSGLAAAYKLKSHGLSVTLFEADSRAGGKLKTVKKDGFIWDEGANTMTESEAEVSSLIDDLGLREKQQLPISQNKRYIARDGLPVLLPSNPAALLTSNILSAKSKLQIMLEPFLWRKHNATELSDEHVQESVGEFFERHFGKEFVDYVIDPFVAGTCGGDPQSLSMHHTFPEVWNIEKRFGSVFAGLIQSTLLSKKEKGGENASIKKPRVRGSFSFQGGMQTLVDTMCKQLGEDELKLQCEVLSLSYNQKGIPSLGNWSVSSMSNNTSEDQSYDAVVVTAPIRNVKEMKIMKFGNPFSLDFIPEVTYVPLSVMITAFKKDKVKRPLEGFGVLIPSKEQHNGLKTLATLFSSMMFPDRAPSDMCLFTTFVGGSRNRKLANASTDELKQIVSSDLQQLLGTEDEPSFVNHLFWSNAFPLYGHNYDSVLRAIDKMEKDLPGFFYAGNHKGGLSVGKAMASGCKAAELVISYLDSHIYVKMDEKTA
Assay: biochemical
Give bare numbers, as −log10 of the molar value.

For orientation, consider the following solved cases.
Compound	pIC50
CC(C)N(C)S(=O)(=O)NC(=O)c1cc(-n2c(=O)cc(C(F)(F)F)n(C)c2=O)c(F)cc1Cl	6.20
C#CCN1C(=O)C(F)(F)Oc2cc(F)c(-n3c(=O)n(C)c(=S)n(C)c3=O)cc21	8.93

-- ask # get_value(readout= pIC50, system= PPO2 G399A (Amaranthus tuberculatus, UniProt Q0NZW9, G398A)) for CCOC(=O)C(C)OC(=O)c1cc(Oc2ccc(C(F)(F)F)cc2Cl)ccc1[N+](=O)[O-] (stereo not shown)
-- reply 5.80

----------
Answer each item with its documented pIC50.
Target: PPO2 R128M ΔG210 in Escherichia coli hemG (Amaranthus tuberculatus, UniProt Q0NZW9, DEL210-210/R128M, cells depend on it)
Details: read-out: IC50 (E. coli hemG growth)
pIC50: −log10 of the molar value.

For orientation, consider the following solved cases.
Molecule	pIC50
CC(C)N(C)S(=O)(=O)NC(=O)c1cc(-n2c(=O)cc(C(F)(F)F)n(C)c2=O)c(F)cc1Cl [Saflufenacil, saflufenacil]	< 5.00
C#CCN1C(=O)C(F)(F)Oc2cc(F)c(-n3c(=O)n(C)c(=S)n(C)c3=O)cc21 [Trifludimoxazin, trifludimoxazin]	7.17

-- ask Name the recorded pIC50 for CCOC(=O)C(C)OC(=O)c1cc(Oc2ccc(C(F)(F)F)cc2Cl)ccc1[N+](=O)[O-] (stereo not drawn) [Lactofen, lactofen] .
-- reply < 5.00

----------
Answer each item with its documented pIC50.
Molecular target: PPO2 R128I ΔG210 (Amaranthus tuberculatus, UniProt Q0NZW9, DEL210-210/R128I)
Test: biochemical
Answers are plain numbers, as −log10 of the molar value.

Field: pIC50. Fill in for each record below.
1. CCOC(=O)C(C)OC(=O)c1cc(Oc2ccc(C(F)(F)F)cc2Cl)ccc1[N+](=O)[O-] (stereo not shown)
2. C#CCN1C(=O)C(F)(F)Oc2cc(F)c(-n3c(=O)n(C)c(=S)n(C)c3=O)cc21

-- reply
5.71
7.00

----------
Target: PPO2 R128T ΔG210 in Escherichia coli hemG (Amaranthus tuberculatus, UniProt Q0NZW9, DEL210-210/R128T, cells depend on it)
Settings: read-out: IC50 (E. coli hemG growth)
pIC50: −log10 of the molar value.
Answer each item with its documented pIC50.

Compound	Measured result
CCOC(=O)C(C)OC(=O)c1cc(Oc2ccc(C(F)(F)F)cc2Cl)ccc1[N+](=O)[O-] (stereo not drawn)	< 5.00
C#CCN1C(=O)C(F)(F)Oc2cc(F)c(-n3c(=O)n(C)c(=S)n(C)c3=O)cc21	7.17

As a next step, examine the compound that follows.
-- ask Name the recorded pIC50 for "CC(C)N(C)S(=O)(=O)NC(=O)c1cc(-n2c(=O)cc(C(F)(F)F)n(C)c2=O)c(F)cc1Cl" .
-- reply < 5.00

----------
Answer each item with its documented IC50.
Target: PPO2 R128H ΔG210 (Amaranthus tuberculatus, UniProt Q0NZW9, DEL210/R128H)
Test: biochemical
Answers are plain numbers, in nM.

Molecule	Endpoint label	Measured result
CCOC(=O)C(C)OC(=O)c1cc(Oc2ccc(C(F)(F)F)cc2Cl)ccc1[N+](=O)[O-] (stereo not shown) [Lactofen, lactofen]	IC50	1590

As a next step, examine the molecule that follows.
-- ask Name the recorded IC50 for C#CCN1C(=O)C(F)(F)Oc2cc(F)c(-n3c(=O)n(C)c(=S)n(C)c3=O)cc21 [Trifludimoxazin, trifludimoxazin] .
-- reply 30.2

----------
Molecular target: PPO2 R128A ΔG210 (Amaranthus tuberculatus, UniProt Q0NZW9, DEL210/R128A)
Sequence (Q0NZW9 with tags, fused parts or gaps R128A/DEL210): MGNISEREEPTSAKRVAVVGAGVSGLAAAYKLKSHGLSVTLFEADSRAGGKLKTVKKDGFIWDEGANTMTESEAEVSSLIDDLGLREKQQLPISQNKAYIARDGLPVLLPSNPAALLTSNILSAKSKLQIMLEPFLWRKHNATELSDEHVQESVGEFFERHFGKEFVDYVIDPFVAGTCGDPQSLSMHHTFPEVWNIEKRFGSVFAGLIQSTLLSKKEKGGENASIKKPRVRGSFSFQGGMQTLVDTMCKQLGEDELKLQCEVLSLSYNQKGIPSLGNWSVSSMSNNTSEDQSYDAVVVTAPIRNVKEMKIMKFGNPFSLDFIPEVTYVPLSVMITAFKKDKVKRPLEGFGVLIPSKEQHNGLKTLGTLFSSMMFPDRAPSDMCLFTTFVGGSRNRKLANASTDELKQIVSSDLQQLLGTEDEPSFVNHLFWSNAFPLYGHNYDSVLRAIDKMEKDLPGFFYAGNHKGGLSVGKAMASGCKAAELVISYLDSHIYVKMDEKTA
Assay: biochemical
pIC50: −log10 of the molar value.
Answer each item with its documented pIC50.

For orientation, consider the following solved cases.
CC(C)N(C)S(=O)(=O)NC(=O)c1cc(-n2c(=O)cc(C(F)(F)F)n(C)c2=O)c(F)cc1Cl < 5.00
CS(=O)(=O)NC(=O)c1cc(Oc2ccc(C(F)(F)F)cc2Cl)ccc1[N+](=O)[O-] < 5.00

As a next step, examine the molecule that follows.
-- ask Name the recorded pIC50 for "C#CCN1C(=O)C(F)(F)Oc2cc(F)c(-n3c(=O)n(C)c(=S)n(C)c3=O)cc21" .
-- reply 7.48
